Recorded apparent KD of MS2 coat protein, one value per entry.
system: MS2 coat protein; experiment: apparent KD of MS2 coat protein; designed switch direction (-1 OFF switch, 1 ON switch): -1; higher = weaker reporter binding; settings: Eterna round: R95; input ligand: FMN 200 uM
Dear colleague, please return just the value in nM, with no unit written.

Input sequence	Recorded metric	Readout value
AAGUACCGUCACGAUAGUGAUGGUACAACAAGCAGUGAAACAUGAGGAUCACCCAUGUCCUCAAUUGCUCGUCUUAU [Sensor 3 - 74] (puzzle: Sensor v3, turn-off variant 2)	apparent KD of MS2 coat protein	39.9
UCAUGUUUAGAGGAUAUGAUUACUUUAGAGUAAUCAGAAGGCUAGACAUGAGGAUCACCCAUGUCAUAACAUGA [Exclusion 6 - B - 15:a] (puzzle: Exclusion 6)	apparent KD of MS2 coat protein	38.3
CUGAGGUAGCGGUCCUAUGACAUGAGGAUCACCCAUGUACCUUGCUACGAGCUUUUUGCUCGUCUUAUGAUUCUCGG [JL Atriat mod 4] (puzzle: Sensor v3, turn-off variant 1)	apparent KD of MS2 coat protein	166

Q: Please look at this sequence and report its apparent KD of MS2 coat protein: UUUAAUUUUUUUUUUUUACAAGCUUUUUGCUCGUCUUAUACAUGAGGAUCACCCAUGUGGGUAGAAAAUAAAUUAUC [JMF 91] (puzzle: Sensor v3, turn-off variant 2)
Ans: 44.1

Q: Please look at this sequence and report its apparent KD of MS2 coat protein: AAUUCUAGGGUCAGACGCACAAGCUUUUUGUUCGUUUUAACAUGAGGAUCACCCAUGUCUAGUGGAUCUGAUCGGGC [JL ViennaUCT Isreen mod 9] (puzzle: Sensor v3, turn-off variant 2)
Ans: 28.6

Q: Please look at this sequence and report its apparent KD of MS2 coat protein: AGUAACUAUCACGAAAGUGAUAGUUACAAAACAAGUGAAACAUGAGGAUCACCCAUGUCCUCACUUGCUCGUCUUAU [Sensor 3 - 5] (puzzle: Sensor v3, turn-off variant 2)
Ans: 14.2

Q: Please look at this sequence and report its apparent KD of MS2 coat protein: CCCUCAGUCUAGGAUAUAACAAUCAGAUAUCAGUUAGAAGGAGACACAUGAGGAUCACCCAUGUGGGUCAAUAA [Bearener] (puzzle: Exclusion 6)
Ans: 50.7
